Test: clinical
Conditions: male, human, in vivo, po, 8 mg
quantity: AUC(0-inf) (ng·h/mL)
Give your result in ng·h/mL as a bare value.

Determine its reported AUC(0-inf): Cc1nccn1C[C@H]1CCc2c(c3cccc4c3n2CCC4)C1=O
59.4

----------
Experiment: clinical
Settings: male, human, in vivo, po, 4 mg
quantity: AUC(0-inf) (ng·h/mL)
The answer is to be given in ng·h/mL; state only the numeric part.

Determine its reported AUC(0-inf): Cc1nccn1C[C@H]1CCc2c(c3cccc4c3n2CCC4)C1=O [Cilansetron]
26.7

----------
Test: clinical
Settings: male, human, in vivo, po, 32 mg
quantity: Vd/F (L)
Write the number in L without appending the unit.

// Input: Cc1nccn1C[C@H]1CCc2c(c3cccc4c3n2CCC4)C1=O [Cilansetron] . Output its Vd/F only.
269

----------
Experiment: clinical
Settings: male, human, in vivo, iv, 8 mg
quantity: half-life (h)
Kindly provide the numeric value in h only, without the unit symbol.

Determine its reported half-life: Cc1nccn1C[C@H]1CCc2c(c3cccc4c3n2CCC4)C1=O
1.62

----------
Assay: Study S.241.1.104: Ortho Tri-Cyclen pharmacokinetics with cilansetron 2 mg TID
Format: in vivo, human
Settings: female, human, plasma, oral, ORC + Cilansetron 2 mg TID; Day 21; arith. mean
quantity: Cmax
Please report the result as a number followed by the unit.

Output measured Cmax for this item: C#C[C@]1(O)CC[C@H]2[C@@H]3CCc4cc(O)ccc4[C@H]3CC[C@@]21C [EE, ethinyl estradiol]
0.144 ng/mL

----------
Assay: clinical
Conditions: both, human, in vivo, 8 mg, T½
quantity: half-life (min)
Numbers only; they are read as min.

Using the record for Cc1nccn1C[C@H]1CCc2c(c3cccc4c3n2CCC4)C1=O , state its measured half-life.
86.4

----------
Experiment: clinical
Details: female, human, in vivo, 16 mg
quantity: half-life
Put your answer as a value accompanied by its unit after it.

Input Cc1nccn1C[C@H]1CCc2c(c3cccc4c3n2CCC4)C1=O , output reported half-life.
2.97 h

----------
Assay: clinical
Conditions: female, human, in vivo, 16 mg
quantity: AUC(0-t) (ng·h/mL)
Report as a plain number; the unit ng·h/mL is understood.

Entry Cc1nccn1C[C@H]1CCc2c(c3cccc4c3n2CCC4)C1=O needs its AUC(0-t) filled in; supply it.
360

----------
Test: clinical
Details: female, human, in vivo, po, 32 mg
quantity: Tmax

Note Tmax for the compound shown: Cc1nccn1C[C@H]1CCc2c(c3cccc4c3n2CCC4)C1=O [Cilansetron]
1 h

----------
Assay: clinical
Conditions: male, human, in vivo, AUC (0-τ)
quantity: AUC (ng·h/mL)
Reply numerically in ng·h/mL, unit not repeated.

Quickly give me recorded AUC for Cc1nccn1C[C@H]1CCc2c(c3cccc4c3n2CCC4)C1=O
196

----------
Experiment: clinical
Conditions: male, human, in vivo, iv, 8 mg
quantity: AUC(0-inf)
Write the quantity with the unit trailing the number.

For the compound Cc1nccn1C[C@H]1CCc2c(c3cccc4c3n2CCC4)C1=O [Cilansetron] , give its reported AUC(0-inf).
254 ng·h/mL

----------
Test: clinical
Conditions: male, human, in vivo, Cmax
quantity: Cmax (ng/mL)
Numeric only. Scale: ng/mL

Respond only with Cmax recorded for Cc1nccn1C[C@H]1CCc2c(c3cccc4c3n2CCC4)C1=O
58.8

----------
Test: Study S.241.1.103: 14C mass balance, 8 mg oral and IV
Assay type: in vivo, human
Conditions: male, human, in vivo, po
quantity: Vd/F (L)
Number in L, nothing else.

Please look at this compound and report its Vd/F: Cc1nccn1C[C@H]1CCc2c(c3cccc4c3n2CCC4)C1=O [Cilansetron]
155

----------
Assay: Study S241.1.111: relative bioavailability and food effect, 2 mg tablet vs oral solution
Assay type: in vivo, human
Conditions: both sexes, human, in vivo, 2 mg, Cmax
quantity: Cmax (ng/mL)
Give just the number in ng/mL; leave the unit off.

Kindly indicate its recorded Cmax. Item: Cc1nccn1C[C@H]1CCc2c(c3cccc4c3n2CCC4)C1=O
8.24

----------
Target: CYP1A2 (Homo sapiens, UniProt P05177)
Sequence (P05177 whole entry): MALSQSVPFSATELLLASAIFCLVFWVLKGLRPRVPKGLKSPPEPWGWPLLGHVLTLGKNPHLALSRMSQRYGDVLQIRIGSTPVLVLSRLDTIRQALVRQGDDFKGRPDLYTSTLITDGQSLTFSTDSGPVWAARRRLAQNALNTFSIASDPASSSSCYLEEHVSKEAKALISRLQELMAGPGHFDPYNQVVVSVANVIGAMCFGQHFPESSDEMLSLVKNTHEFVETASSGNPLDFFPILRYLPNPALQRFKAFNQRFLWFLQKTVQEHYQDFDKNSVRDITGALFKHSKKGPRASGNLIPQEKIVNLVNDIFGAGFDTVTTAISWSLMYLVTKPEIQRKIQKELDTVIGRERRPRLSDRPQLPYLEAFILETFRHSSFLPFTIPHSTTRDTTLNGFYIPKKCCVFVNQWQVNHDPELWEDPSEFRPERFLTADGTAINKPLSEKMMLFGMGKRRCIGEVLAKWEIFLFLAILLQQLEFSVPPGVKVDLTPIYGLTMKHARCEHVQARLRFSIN
quantity: IC50 (µM)
Field: numeric (µM). Do not append units.

Tell me IC50 reported for Cc1nccn1C[C@H]1CCc2c(c3cccc4c3n2CCC4)C1=O
60

----------
Assay: clinical
Conditions: male, human, in vivo, po, 64 mg
quantity: CL renal (mL/min)
Number only, in mL/min; omit the unit.

Give me measured CL renal, please, for this compound: Cc1nccn1C[C@H]1CCc2c(c3cccc4c3n2CCC4)C1=O
4.5

----------
Assay: Study S.241.1.103: 14C mass balance, 8 mg oral and IV
Type: in vivo, human
Conditions: male, human, in vivo, iv
quantity: Vd (L)
Write the answer as a number in L, unit excluded.

Return value of Vd for input Cc1nccn1C[C@H]1CCc2c(c3cccc4c3n2CCC4)C1=O , no commentary.
85.3

----------
Experiment: clinical
Settings: male, human, in vivo, iv, 8 mg, T½
quantity: half-life (h)
Give the number; h is assumed, so skip it.

Output half-life of Cc1nccn1C[C@H]1CCc2c(c3cccc4c3n2CCC4)C1=O [Cilansetron]
1.7

----------
Test: clinical
Conditions: female, human, in vivo, Cmax
quantity: Cmax (ng/mL)
Answer format: numeric, ng/mL implied, no suffix.

Give the value of Cmax reported for the following: Cc1nccn1C[C@H]1CCc2c(c3cccc4c3n2CCC4)C1=O
95.1

----------
Experiment: clinical
Conditions: both, human, in vivo, po, 8 mg, Cmax
quantity: Cmax (ng/mL)
Dear colleague, please return just the value in ng/mL, with no unit written.

Specify measured Cmax for Cc1nccn1C[C@H]1CCc2c(c3cccc4c3n2CCC4)C1=O [Cilansetron] .
94.4

----------
Test: clinical
Conditions: male, human, in vivo, po, Cmax
Procedure: Subjects were randomized to receive cilansetron 8 mg IV solution (30-minute infusion), cilansetron 8 mg oral solution, and a cilansetron 8 mg capsule during the three treatment periods, with a 23-day washout between periods. All doses were administered under fasted conditions. […] Table 2.7.1.2.3 presents descriptive statistics for the pharmacokinetic parameters of cilansetron capsule and oral solution, and the results of statistical comparisons between treatments (capsule versus solution). […]
quantity: Cmax (ng/mL)
Number only, in ng/mL; omit the unit.

Identify Cmax associated with the compound Cc1nccn1C[C@H]1CCc2c(c3cccc4c3n2CCC4)C1=O
39

----------
Experiment: Study S.241.1.109: single and multiple dose pharmacokinetics 2 mg TID
Format: in vivo, human
Settings: both sexes, human, in vivo, Half-life
quantity: half-life

Report half-life for Cc1nccn1C[C@H]1CCc2c(c3cccc4c3n2CCC4)C1=O
1 to 2 h

----------
Test: clinical
Conditions: male, human, in vivo, po, Tmax
quantity: Tmax (min)
Value expressed in min; do not type the unit.

Tell me Tmax reported for Cc1nccn1C[C@H]1CCc2c(c3cccc4c3n2CCC4)C1=O
45.6

----------
Experiment: clinical
Settings: both, human, in vivo, 16 mg, T½
quantity: half-life (h)
# unit: h | format: bare number

Tell us which half-life value is on record for Cc1nccn1C[C@H]1CCc2c(c3cccc4c3n2CCC4)C1=O
1.35

----------
Assay: clinical
Conditions: male, human, in vivo, 32 mg
quantity: Tmax

Return value of Tmax for input Cc1nccn1C[C@H]1CCc2c(c3cccc4c3n2CCC4)C1=O , no commentary.
1 h

----------
Assay: clinical
Details: male, human, in vivo, 8 mg, AUC
quantity: AUC (ng·h/mL)
Reply with just the number (in ng·h/mL).

Give the value of AUC reported for the following: Cc1nccn1C[C@H]1CCc2c(c3cccc4c3n2CCC4)C1=O
52.4

----------
Test: clinical
Settings: both, human, in vivo, po, 8 mg, Cmax, Geom. LS Mean
quantity: Cmax (ng/mL)
Give just the numeric value; ng/mL need not be written.

Please report Cmax for the following compound: Cc1nccn1C[C@H]1CCc2c(c3cccc4c3n2CCC4)C1=O
83.9

----------
Assay: clinical
Details: male, human, in vivo, 4 mg, Cmax
quantity: Cmax (ng/mL)
Hi! Could you send only the number? It should be in ng/mL, unit omitted.

Could you please provide reported Cmax for Cc1nccn1C[C@H]1CCc2c(c3cccc4c3n2CCC4)C1=O ? Thanks!
8.83

----------
Assay: clinical
Conditions: female, human, in vivo, Tmax
quantity: Tmax
Respond with a number, then the unit of measure.

Given the compound Cc1nccn1C[C@H]1CCc2c(c3cccc4c3n2CCC4)C1=O , write its reported Tmax.
52.8 min

----------
Assay: clinical
Details: both, human, in vivo, 32 mg
quantity: Tmax (h)
Report the value in h with no unit label.

Recall and state the measured Tmax for Cc1nccn1C[C@H]1CCc2c(c3cccc4c3n2CCC4)C1=O .
1

----------
Test: clinical
Details: male, human, in vivo, po, 8 mg
quantity: Cmax (ng/mL)
Hi! Could you send only the number? It should be in ng/mL, unit omitted.

Look up and report measured Cmax for this entry: Cc1nccn1C[C@H]1CCc2c(c3cccc4c3n2CCC4)C1=O [Cilansetron]
22.1
